# reported TGI; entries follow
Tested on: RPMI-8226 leukemia
Assay: NCI tumour cell line growth inhibition, 48 h

Some molecules with recorded TGI:
1) CC1=C(C)C(=O)C(Nc2cccc(C(F)(F)F)c2)=C(Cl)C1=O; 7.32 µM
2) C[C@]12CC[C@H]3[C@@H](CC=C4C[C@@H](O)CC[C@@]43C)[C@@H]1CC[C@@H]2[C@](C)(O)CCc1cccnc1; 49.9 µM

Measured TGI, `COc1ccc([C@@H]2[C@@H](O)C(=O)N2c2cc(OC)c(OC)c(OC)c2)cc1F` : > 21.8 µM

Measured TGI, `CC(=O)/C(N=Nc1ccc2oc(=O)ccc2c1)=C(\C)O` : 11.4 µM

Measured TGI, `CNC(=O)c1cc(N2CCc3cc(NC(=O)Nc4ccc(N5CCN(C)CC5)c(C(F)(F)F)c4)ccc32)ccn1` : 2.69 µM
